- MEASUREMENT DESCRIPTION: Confirmatory qHTS for Vero E6 cytotoxicity: counterscreen for inhibitors of SARS-S pseudo-typed particle cell entry
- DETAILS: cell viability; series mostly up to 57.1 µM
Results filed as inconclusive are left out. Calls of active or inactive are those of the source. Calls come from the whole dose curve.
Labels: yes (1) for active, no (0) for inactive

MOLECULE	ASSIGNED CLASS
CC(=O)N1CCN(c2ccc(OC[C@H]3CO[C@](Cn4ccnc4)(c4ccc(Cl)cc4Cl)O3)cc2)CC1	no (0)
COc1cc2nccc(Oc3ccc(NC(=O)NC4CC4)c(Cl)c3)c2cc1C(N)=O	no (0)
CCCCCCCCCCCCOCCOCCOCCOCCOCCOCCOCCOCCOCCO	no (0)
CCCN1C[C@H](C)[C@@H](O)[C@](C)(O)[C@@H](CC)OC(=O)[C@H](C)[C@@H](O[C@H]2C[C@@](C)(OC)[C@@H](O)[C@H](C)O2)C(C)[C@@H](O[C@@H]2O[C@H](C)C[C@H](N(C)C)[C@H]2O)[C@](C)(O)C[C@H]1C (stereo partly drawn)	no (0)
COC(=O)C1=C(C)NC(C)=C(C(=O)OCC(C)C)C1c1ccccc1[N+](=O)[O-] (stereo not drawn)	yes (1)
Nc1ccn([C@@H]2O[C@H](CO)[C@@H](O)C2(F)F)c(=O)n1	no (0)
COc1cc([C@@H]2c3cc4c(cc3C(O[C@@H]3O[C@@H]5CO[C@@H](c6cccs6)OC5[C@H](O)[C@H]3O)C3COC(=O)[C@@H]32)OCO4)cc(OC)c1O (stereo partly drawn)	yes (1)
CC[C@@]1(O)C(=O)OCc2c1cc1n(c2=O)Cc2cc3c([N+](=O)[O-])cccc3nc2-1	yes (1)

###

- MEASUREMENT DESCRIPTION: Confirmatory qHTS for Vero E6 cytotoxicity: counterscreen for inhibitors of SARS-S pseudo-typed particle cell entry
- DETAILS: cell viability; series mostly up to 57.1 µM
Records with an inconclusive call do not appear. Activity calls are given as the source filed them. Calls follow the shape of the full dose curve.
Outcomes: Y for active, N for inactive

COMPOUND	ASSIGNED CLASS
N#CC(c1ccc(Cl)cc1)c1c(Cl)cc(-n2ncc(=O)[nH]c2=O)cc1Cl (stereo unspecified)	Y
CC(CN(C)C)CN1c2ccccc2CCc2ccccc21 (stereo unspecified)	N
C[n+]1c2cc(N)ccc2cc2ccc(N)cc21 (tested in a mixture with another compound)	Y
C/C=C(/C)C(=O)O[C@H]1C(C)=CC23C(=O)C(C=C(CO)[C@@H](O)[C@]12O)[C@H]1[C@@H](C[C@H]3C)C1(C)C (stereo partly specified)	N
CC(C)(C)NCC(O)COc1ccccc1C1CCCC1 (stereo unspecified)	N
CN1CCC(=C2c3ccccc3CCc3sccc32)CC1	N
Oc1c(Cl)cc(Cl)c(Cl)c1Cc1c(O)c(Cl)cc(Cl)c1Cl	Y
Cc1c(N)nc(C(CC(N)=O)NCC(N)C(N)=O)nc1C(=O)NC(C(=O)NC(C)C(O)C(C)C(=O)NC(C(=O)NCCc1nc(-c2nc(C(=O)NCCCN[C@@H](C)c3ccccc3)cs2)cs1)C(C)O)C(O[C@@H]1O[C@@H](CO)[C@@H](O)[C@H](O)[C@@H]1O[C@H]1O[C@H](CO)[C@@H](O)[C@H](OC(N)=O)[C@@H]1O)c1cnc[nH]1 (stereo partly specified)	N
Cc1cn([C@H]2C[C@H](N=[N+]=[N-])[C@@H](CO)O2)c(=O)[nH]c1=O	N
CC(C)C[C@H](NC(=O)[C@H](CCc1ccccc1)NC(=O)CN1CCOCC1)C(=O)N[C@@H](Cc1ccccc1)C(=O)N[C@@H](CC(C)C)C(=O)[C@@]1(C)CO1	Y
CCOc1ccc(Cc2nccc3cc(OCC)c(OCC)cc23)cc1OCC	Y
COc1cc(N)c(Cl)cc1C(=O)NC1CCN(CCCOc2ccc(F)cc2)CC1OC (stereo unspecified)	N
CC(=O)Oc1ccccc1C(=O)Nc1ncc([N+](=O)[O-])s1	Y
Cc1nnc(C(=O)NC(C)(C)c2nc(C(=O)NCc3ccc(F)cc3)c(O)c(=O)n2C)o1	N
O=c1ccc2ccccc2o1	N
CN(C)CCOC(c1ccccc1)c1ccc(Br)cc1 (stereo unspecified)	N
CN(C/C=C/c1ccccc1)Cc1cccc2ccccc12	N
CC[C@H](C)C(=O)O[C@H]1C[C@@H](C)C=C2C=C[C@H](C)[C@H](CC[C@@H]3C[C@@H](O)CC(=O)O3)[C@H]21	Y
O=C(Nc1ccc([N+](=O)[O-])cc1Cl)c1cc(Cl)ccc1O	Y
CN1CCC[C@@H]1CCO[C@](C)(c1ccccc1)c1ccc(Cl)cc1	N
CC(C)OC(=O)[C@H](C)N[P@](=O)(CO[C@H](C)Cn1cnc2c(N)ncnc21)Oc1ccccc1	N
CN1CCCCC1CCN1c2ccccc2Sc2ccc(S(C)=O)cc21 (stereo unspecified)	N
CCCCCCNC(=O)n1cc(F)c(=O)[nH]c1=O	N
O=C1CCc2ccc(OCCCCN3CCN(c4cccc(Cl)c4Cl)CC3)cc2N1	N
C=CC(=O)Nc1cc(Nc2nccc(-c3cn(C)c4ccccc34)n2)c(OC)cc1N(C)CCN(C)C	Y
OCCN1CCN(CC/C=C2/c3ccccc3Sc3ccc(C(F)(F)F)cc32)CC1	N
